testedTarget: T1, CTLA4-Fc fusion protein (human, biotinylated where used as CTLA4-Fc-Biotin (Examples 5.1-5.3))
T1 construct: expressed in HEK293 cells; also called human CTLA4-Fc protein; CTLA4-Fc antigen protein
T1 sequence (chain, as listed by the source limits assumed): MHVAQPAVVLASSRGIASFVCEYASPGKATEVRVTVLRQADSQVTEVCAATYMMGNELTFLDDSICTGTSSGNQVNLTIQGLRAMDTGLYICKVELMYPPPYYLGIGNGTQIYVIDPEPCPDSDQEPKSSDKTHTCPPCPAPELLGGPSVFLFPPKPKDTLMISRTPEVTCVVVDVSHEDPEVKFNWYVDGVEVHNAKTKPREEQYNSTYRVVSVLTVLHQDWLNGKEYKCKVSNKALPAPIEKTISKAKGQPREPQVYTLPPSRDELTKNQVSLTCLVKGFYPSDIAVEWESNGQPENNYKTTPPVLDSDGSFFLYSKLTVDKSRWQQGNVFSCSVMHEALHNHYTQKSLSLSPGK
measurementDescription: ELISA OD ratio, value equals OD(CTLA4)/OD(blank)
Some binders, each annotated with its measured ODa/ODb.
Could you keep your reply to the number by itself?

Completed entries (count: 3):
[
  {
    "binder": "CTLA4 heavy chain single domain antibody No. C16 (VHH, Camel VHH expressed in E. coli (PET32b), nickel-purified) VHH: QVQLQESGGGSVQAGGSLTLSCAASGYTGDLVAWFRQTPGKEREGVAAISRTGLTTYYADSVKGRFTISQDTAKNTGYLQMNSMKPEDTAMYYCVAGWHVGGTWYKTSSYDYWGQGTQVTVSS",
    "assayMetric": "ODa/ODb",
    "reportedResult": 63.8
  },
  {
    "binder": "CTLA4 heavy chain single domain antibody No. C29 (VHH, Camel VHH expressed in E. coli (PET32b), nickel-purified) VHH: QVQLQESGGGSVQAGGSLRLSCAVSGYTYSGYCMGWFRQAPGKEREGVAAISRGDGSPGYADSVKGRFTISQDNAKNTLYLQMNSLKPEDTAMYYCAADVIPTETCSYGSWSGPNGYWGQGTQVTVSS",
    "assayMetric": "ODa/ODb",
    "reportedResult": 54
  },
  {
    "binder": "CTLA4 heavy chain single domain antibody No. 119 (VHH, Camel VHH expressed in E. coli (PET32b), nickel-purified) VHH: QVQLQESGGGSVQAGGSLRLSCAASEYTYHTNCMGWFRQAPGKEREGLAVMNPSGGVTYFADSVKGRFTISRDNAKNTVYLQMNSLKPEDTAMYYCAAGRGRCSGYSGYYNEWGQGTQVTVSS",
    "assayMetric": "ODa/ODb",
    "reportedResult": 19.2
  }
]

Value of ODa/ODb reported for the binder CTLA4 heavy chain single domain antibody No. J39 (VHH, Camel VHH expressed in E. coli (PET32b), nickel-purified) VHH: QVQLQESGGGSVQAGGSLRLSCAPSRYSGALMGWFRQAPGKEREGVAVISRSGLTTYYADSVKGRFTISQDTAKNTIYLQMNSMKPEDTAMYYCVAAPEARAWSSRDPTGYNYWGQGTQVTVSS is 62.4
